Quick reference for log10 of IC50 among some substances
- target or test system: angiotensin-converting enzyme (ACE) (Oryctolagus cuniculus)
- Sequence (P12822 34-1310): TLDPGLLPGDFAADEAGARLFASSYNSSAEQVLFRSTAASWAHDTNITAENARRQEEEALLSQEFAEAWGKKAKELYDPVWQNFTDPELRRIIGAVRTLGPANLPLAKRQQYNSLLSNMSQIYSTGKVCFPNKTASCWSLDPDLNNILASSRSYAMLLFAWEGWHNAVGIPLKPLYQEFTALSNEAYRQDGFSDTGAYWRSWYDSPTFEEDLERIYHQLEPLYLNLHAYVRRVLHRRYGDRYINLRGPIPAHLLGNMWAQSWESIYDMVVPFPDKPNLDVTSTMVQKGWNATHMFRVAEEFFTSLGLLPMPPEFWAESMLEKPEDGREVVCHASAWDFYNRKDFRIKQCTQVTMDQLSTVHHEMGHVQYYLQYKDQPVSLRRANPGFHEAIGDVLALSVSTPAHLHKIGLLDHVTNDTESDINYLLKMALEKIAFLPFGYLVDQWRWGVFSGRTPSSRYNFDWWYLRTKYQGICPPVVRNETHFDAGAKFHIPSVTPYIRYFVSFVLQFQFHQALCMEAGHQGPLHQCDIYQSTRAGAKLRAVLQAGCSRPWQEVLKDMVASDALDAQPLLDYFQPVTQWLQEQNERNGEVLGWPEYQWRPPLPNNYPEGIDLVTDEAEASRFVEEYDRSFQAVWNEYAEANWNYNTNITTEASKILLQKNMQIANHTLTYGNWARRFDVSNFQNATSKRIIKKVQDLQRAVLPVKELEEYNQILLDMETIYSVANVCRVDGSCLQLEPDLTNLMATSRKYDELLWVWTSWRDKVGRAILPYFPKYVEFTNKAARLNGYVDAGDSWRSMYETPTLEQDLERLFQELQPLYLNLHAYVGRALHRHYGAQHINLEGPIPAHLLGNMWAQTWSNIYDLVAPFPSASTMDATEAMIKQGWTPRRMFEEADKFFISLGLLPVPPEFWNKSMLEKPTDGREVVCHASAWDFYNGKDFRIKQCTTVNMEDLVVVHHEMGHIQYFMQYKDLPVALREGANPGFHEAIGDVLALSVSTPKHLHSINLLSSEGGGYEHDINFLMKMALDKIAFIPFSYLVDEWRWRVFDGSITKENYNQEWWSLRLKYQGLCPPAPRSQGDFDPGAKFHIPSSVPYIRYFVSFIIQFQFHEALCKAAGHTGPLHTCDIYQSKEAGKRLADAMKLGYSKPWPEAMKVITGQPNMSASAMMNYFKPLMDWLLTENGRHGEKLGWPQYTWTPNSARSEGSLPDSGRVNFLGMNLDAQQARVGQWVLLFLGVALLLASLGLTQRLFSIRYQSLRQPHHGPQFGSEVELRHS
- measurement notes: ACE-inhibitory activity, fluorescence assay with Abz-Gly-Phe(NO2)-Pro
- Assay type: biochemical
- conditions used: mean ± SD; read-out: ACE Inhibitory Activity (IC50-µM)
Where no end group is shown, it is not given here.
endpoint label: log10 of IC50 (log10 of the value in µM)

| substance | target or test system | endpoint label | reading |
| --- | --- | --- | --- |
| AYFYPE [AYFYPE] | angiotensin-converting enzyme (ACE) (Oryctolagus cuniculus) | log10 of IC50 | 2.89 |
| YFYPEL [YFYPEL] | angiotensin-converting enzyme (ACE) (Oryctolagus cuniculus) | log10 of IC50 | 0.95 |
| YLGYLE [YLGYLE] | angiotensin-converting enzyme (ACE) (Oryctolagus cuniculus) | log10 of IC50 | 1.93 |
| YPFPGPIP | angiotensin-converting enzyme (ACE) (Oryctolagus cuniculus) | log10 of IC50 | 2.35 |
| YPFVEP [YPFVEP] | angiotensin-converting enzyme (ACE) (Oryctolagus cuniculus) | log10 of IC50 | 0.87 |
| YPFPGPI [YPFPGPI] | angiotensin-converting enzyme (ACE) (Oryctolagus cuniculus) | log10 of IC50 | 2.84 |

====

- target or test system: UniProt P12822
- measurement notes: ACE-inhibitory activity, fluorescence assay with Abz-Gly-Phe(NO2)-Pro
- Assay type: biochemical
- conditions used: mean ± SD; read-out: ACE Inhibitory Activity (IC50-µM)
Where a SMILES comes first, the peptide text is derived from it.
Quick reference for log10 IC50 among some compounds
endpoint label: log10 IC50 (log10 of the value in µM)

| compound | log10 IC50 |
| --- | --- |
| CC(C)C[C@H](NC(=O)[C@H](CC(C)C)NC(=O)[C@@H](N)Cc1ccc(O)cc1)C(=O)O [YLL] (H-Tyr-Leu-Leu-OH; N-terminus and C-terminus assumed) | 2.72 |
| CC(C)C[C@H](N)C(=O)NCC(=O)N[C@@H](Cc1ccc(O)cc1)C(=O)O [LGY] (H-Leu-Gly-Tyr-OH; N-terminus and C-terminus assumed) | 1.42 |
| CC(C)C[C@H](NC(=O)[C@@H](N)CC(C)C)C(=O)N[C@@H](Cc1ccccc1)C(=O)O [LLF] (H-Leu-Leu-Phe-OH; N-terminus and C-terminus assumed) | 1.98 |
| CC(C)C[C@H](NC(=O)[C@@H](N)Cc1ccc(O)cc1)C(=O)NCC(=O)N[C@@H](Cc1ccc(O)cc1)C(=O)O [YLGY] (H-YLGY-OH; N-terminus and C-terminus assumed) | 0.99 |
| CC(C)C[C@H](NC(=O)[C@H](Cc1ccccc1)NC(=O)CNC(=O)[C@@H](N)Cc1ccc(O)cc1)C(=O)O [YGFL] | 2.47 |

Reference source: paper PMC7466261
